tested on: Calu-3 (Lung Adenocarcinoma); experiment: combination Emax (second highest fraction inhibited in the dose matrix, 72 h); higher = more inhibition; extreme values may be limits of the assay
Assign combination Emax to each entry below.
Just the number.

Quick note, combination Emax for CN(CCO)CC[C@H](CSc1ccccc1)Nc1ccc(S(=O)(=O)NC(=O)c2ccc(N3CCC([C@@H](O)c4ccccc4-c4ccc(Cl)cc4)CC3)cc2)cc1S(=O)(=O)C(F)(F)F [AZD4320] + Cc1cc2ncnn2cc1Nc1ncc2c(n1)n(C1CCOCC1)c(=O)n2C [AZD7648] (first compound max 1 µM, 7x7, partner max 10 µM) landed at 0.182

Quick note, combination Emax for COc1nnc2ccc(N3CCC(c4ccc(OCCN5CCN(C)C(=O)[C@H]5C)cc4)CC3)nn12 [AZD5153] + C[C@@H]1COCCN1C2=NC(=NC(=C2)C3(CC3)[S@](=N)(=O)C)C4=C5C=CNC5=NC=C4 [AZD6738] (first compound max 1 µM, 7x7, partner max 10 µM) landed at 0.719

Quick note, combination Emax for Cc1cc2ncnn2cc1Nc1ncc2c(n1)n(C1CCOCC1)c(=O)n2C [AZD7648] + O=C(c1cc(Cc2n[nH]c(=O)c3ccccc23)ccc1F)N1CCN(C(=O)C2CC2)CC1 [Olaparib] (first compound max 10 µM, 7x7, partner max 10 µM) landed at 0.0691
